assay: in vivo; conditions: rat, iv, 1 mg/kg
Can you tell me AUC(0-t) for the items I'm about to list?
Numbers only, in ng·h/mL.

Check out these entries, answers already filled in.
smilesText	AUC(0-t) [ng·h/mL]
[2H]C([2H])([2H])n1cc2cc(Nc3nc(=O)n(-c4cncc(Cl)c4)c(=O)n3Cc3cc(F)c(F)cc3F)c(Br)cc2n1	19500
O=c1nc(Nc2cc3cn(CCO)nc3cc2Cl)n(Cc2cc(F)c(F)cc2F)c(=O)n1-c1cncc(Cl)c1	2040

Here is another compound to look at.
Query: Given the compound [2H]C([2H])([2H])n1cc2cc(Nc3nc(=O)n(-c4cncc(Cl)c4)c(=O)n3Cc3cc(F)c(F)cc3F)c(Cl)cc2n1 , what is its reported AUC(0-t)?
Response: 19000
